# Test system: rodent lifetime carcinogenesis bioassay, tumor incidence TD50
# protocol summary: carcinogenic potency in animals, long-term in vivo studies, CPDB compilation (AID 1745844)
# assay context: rat; strain Fischer 344; males; in feed; site: colon + kidney + liver + rectum + urinary bladder; lesion: adenocarcinoma + polypoid adenoma + tubule adenoma + tubule carcinoma + hepatocholangiocarcinoma + hepatocellular adenoma + hepatoce; dosed 103 weeks; study length 104 weeks
measured property: TD50 (mg/kg/day)
Numeric answer only, unit mg/kg/day assumed.

Qu. Consider the compound shown here: Nc1c(Br)cc(Br)c2c1C(=O)c1ccccc1C2=O What is its recorded TD50?
Ans. 54.6

----------
# Test system: rodent lifetime carcinogenesis bioassay, tumor incidence TD50
# protocol summary: carcinogenic potency in animals, long-term in vivo studies, CPDB compilation (AID 1745844)
# assay context: rat; strain Fischer 344; males; in drinking water; site: adrenal gland; lesion: cortical adenoma; dosed 104 weeks; study length 107 weeks
measured property: TD50
# number then unit; no other words

Qu. Consider the compound shown here: O=C1CCCCC1 What is its recorded TD50?
Ans. 929 mg/kg/day
